- System: Mycobacterium tuberculosis
- Method notes: Antimycobacterial activity against Mycobacterium tuberculosis H37Rv after 6 days by microdilution resazurin assay
- Type: functional
- Experimental parameters: 144 h
Readout label: MIC95 (µg/mL)
Unit µg/mL implied. Number only.

Req: Quick check: MIC95 of CC1(C)CCc2c(ccc3oc(-c4cccnc4)c(CCCO)c23)O1 ?
Resp: 5

Req: Quick check: MIC95 of CC1(C)C=Cc2c(ccc3oc(-c4ccncc4)cc23)O1 ?
Resp: 2.5

====

- Test system: Mycobacterium tuberculosis
- Method notes: Antimycobacterial activity against Mycobacterium tuberculosis H37Rv after 6 days by microdilution resazurin assay
- Assay type: functional
- Experimental parameters: 144 h
compounds and their reported log10 of MIC95
Units before log transform: µg/mL; reported quantity: MIC95; transform: log10.

Known log10 of MIC95 results, listed for orientation:
Cc1c2c(c3cc(Cc4cccnc4)oc3c1C)CCC(C)(C)O2 :: 0.48
NNC(=O)c1ccncc1 :: -0.60
Cc1c2c(c3cc(-c4cccnc4)oc3c1C)CCC(C)(C)O2 :: 0.70

Req: Quick check: log10 of MIC95 of Cc1c2c(c3cc(-c4cnccn4)oc3c1C)CCC(C)(C)O2 ?
Resp: 1.00

Req: Quick check: log10 of MIC95 of Cc1c2c(c3cc(-c4ccncc4)oc3c1C)CCC(C)(C)O2 ?
Resp: 0.40

Req: Quick check: log10 of MIC95 of Cc1c2c(c3cc(Cc4cccs4)oc3c1C)CCC(C)(C)O2 ?
Resp: 1.10

====

- Tested on: Mycobacterium tuberculosis
- Method notes: Antimycobacterial activity against Mycobacterium tuberculosis H37Rv after 6 days by microdilution resazurin assay
- Assay type: functional
- Experimental parameters: 144 h
compounds and their reported MIC95

Known MIC95 results, listed for orientation:
Cc1c2c(c3cc(/C=C/c4cccnc4)oc3c1C)CCC(C)(C)O2 :: 5 µg/mL
Cc1c2c(c3cc(-c4ccccn4)oc3c1C)CCC(C)(C)O2 :: 100 µg/mL
Cc1c2c(c3cc(-c4cccs4)oc3c1C)CCC(C)(C)O2 :: 6.2 µg/mL
Cc1c2c(c3cc(Cc4ccc(Cl)cc4)oc3c1C)CCC(C)(C)O2 :: 25 µg/mL
COC(=N)c1ccc(-c2cc3c4c(c(C)c(C)c3o2)OC(C)(C)CC4)cn1 :: 0.6 µg/mL
Cc1c2c(c3cc(CCC(=O)N4CCCC4)oc3c1C)CCC(C)(C)O2 :: 10 µg/mL
Cc1c2c(c3cc(CCC(=O)N4CCOCC4)oc3c1C)CCC(C)(C)O2 :: 10 µg/mL
Cc1c2c(c3cc(-c4ccc(NCCCN(C)C)nc4)oc3c1C)CCC(C)(C)O2 :: 3 µg/mL
Cc1c2c(c3cc(-c4ccc[n+]([O-])c4)oc3c1C)CCC(C)(C)O2 :: 5 µg/mL
Cc1c2c(c3cc(-c4ccc(Cl)nc4)oc3c1C)CCC(C)(C)O2 :: > 10 µg/mL

Req: # returns recorded MIC95 (system: Mycobacterium tuberculosis) for Cc1c2c(c3cc(-c4ccc(-c5nn[nH]n5)nc4)oc3c1C)CCC(C)(C)O2
Resp: 10 µg/mL

Req: # returns recorded MIC95 (system: Mycobacterium tuberculosis) for CC(=O)OCc1cc2c3c(c(C)c(C)c2o1)OC(C)(C)CC3
Resp: 10 µg/mL

Req: # returns recorded MIC95 (system: Mycobacterium tuberculosis) for Cc1c(C)c2c(c(C)c1O)CCC(C)(C)O2 [APC-100]
Resp: 10 µg/mL

Req: # returns recorded MIC95 (system: Mycobacterium tuberculosis) for Cc1c2c(c3cc(CCc4cccnc4)oc3c1C)CCC(C)(C)O2
Resp: 5 µg/mL

Req: # returns recorded MIC95 (system: Mycobacterium tuberculosis) for CC1(C)CCc2c(ccc3oc4ccccc4c23)O1
Resp: 10 µg/mL

Req: # returns recorded MIC95 (system: Mycobacterium tuberculosis) for Cc1c2c(c3cc(CCC(=O)N4CCN(C)CC4)oc3c1C)CCC(C)(C)O2
Resp: > 10 µg/mL

Req: # returns recorded MIC95 (system: Mycobacterium tuberculosis) for CC1(C)CCc2c(ccc3oc(-c4ccncc4)c(CCCO)c23)O1
Resp: 5 µg/mL

Req: # returns recorded MIC95 (system: Mycobacterium tuberculosis) for Cc1c(C)c2c(c(C)c1O)CC[C@@](C)(CCC[C@H](C)CCC[C@H](C)CCCC(C)C)O2 [ALPHA-TOCOPHEROL]
Resp: 10 µg/mL

Req: # returns recorded MIC95 (system: Mycobacterium tuberculosis) for Cc1c(-c2ccncc2)oc2ccc3c(c12)C=CC(C)(C)O3
Resp: 5 µg/mL

Req: # returns recorded MIC95 (system: Mycobacterium tuberculosis) for CC1(C)C=Cc2c(ccc3c2C2CCCOC2O3)O1 (stereo not given)
Resp: 250 µg/mL
